System: 857933-349-R-J2-PDC complex spheroids, viability
measurementProtocol: Anticancer human tumor 857933-349-R-J2-PDC patient-derived colon adenocarcinoma cell line growth inhibition [GQUAD]
measurementParameters: second compound 1 µM; first compound 10 µM; hits give low values
hey, just use YES if measured viability, T/C is less than 20%, otherwise NO

Solved entries (count: 10):
O=c1[nH]cc(F)c(=O)[nH]1 + CN(C)c1ccc(Nc2c3ccc(NC(=O)CCN4CCCC4)cc3nc3cc(NC(=O)CCN4CCCC4)ccc23)cc1 : NO
COc1cccc2c1C(=O)c1c(O)c3c(c(O)c1C2=O)CC(O)(C(=O)CO)CC3OC1CC(N)C(O)C(C)O1 (stereo not given) + Cc1[nH]c2ccc(F)cc2c1-c1nc2c3cccnc3c3ncccc3c2[nH]1 : YES
O=C(NO)c1cnc(N2CCN(S(=O)(=O)c3ccc4ccccc4c3)CC2)nc1 + Cc1cnc(CNC(=O)c2c(=O)c3ccc(N4CCCN(C)CC4)nc3n3c2sc2ccccc23)cn1 : YES
COc1cc(C2c3cc4c(cc3C(OC3OC5COC(C)OC5C(O)C3O)C3COC(=O)C23)OCO4)cc(OC)c1O (stereo not given) + CN(C)c1ccc(Nc2c3ccc(NC(=O)CCN4CCCC4)cc3nc3cc(NC(=O)CCN4CCCC4)ccc23)cc1 : NO
CC(C)n1c(=O)n(C)c2cnc3cc(F)c(-c4ccc(OCCCN5CCCCC5)nc4)cc3c21 + Cc1[nH]c2ccc(F)cc2c1-c1nc2c3cccnc3c3ncccc3c2[nH]1 : NO
COc1cc(C2c3cc4c(cc3C(OC3OC5COC(C)OC5C(O)C3O)C3COC(=O)C23)OCO4)cc(OC)c1O (stereo not given) + Cc1[nH]c2ccc(F)cc2c1-c1nc2c3cccnc3c3ncccc3c2[nH]1 : NO
C#Cc1c(F)ccc2cc(O)cc(-c3ncc4c(N5CC6CCC(C5)N6)nc(OCC56CCCN5CC(F)C6)nc4c3F)c12 (stereo not given) + Cc1[nH]c2ccc(F)cc2c1-c1nc2c3cccnc3c3ncccc3c2[nH]1 : NO
COc1cccc2c1C(=O)c1c(O)c3c(c(O)c1C2=O)CC(O)(C(=O)CO)CC3OC1CC(N)C(O)C(C)O1 (stereo not given) + CN(C)c1ccc(Nc2c3ccc(NC(=O)CCN4CCCC4)cc3nc3cc(NC(=O)CCN4CCCC4)ccc23)cc1 : YES
CC(=O)O[C@H]1C(=O)[C@@]2(C)[C@H]([C@H](OC(=O)c3ccccc3)[C@]3(O)C[C@H](OC(=O)[C@H](O)[C@@H](NC(=O)c4ccccc4)c4ccccc4)C(C)=C1C3(C)C)[C@]1(OC(C)=O)CO[C@@H]1C[C@@H]2O + Cc1[nH]c2ccc(F)cc2c1-c1nc2c3cccnc3c3ncccc3c2[nH]1 : YES
COc1ccc([C@@H](O)c2cc(-c3ncnc4cc(N5CCOCC5)ccc34)c(F)cc2Cl)nn1 + Cc1[nH]c2ccc(F)cc2c1-c1nc2c3cccnc3c3ncccc3c2[nH]1 : NO

Challenge: Does the reported viability, T/C of COc1cccc2c1C(=O)c1c(O)c3c(c(O)c1C2=O)CC(O)(C(=O)CO)CC3OC1CC(N)C(O)C(C)O1 (stereo not given) + Cc1cnc(CNC(=O)c2c(=O)c3ccc(N4CCCN(C)CC4)nc3n3c2sc2ccccc23)cn1 stay below 20%?
Response given: YES

Challenge: Say whether its viability, T/C is strictly beneath 20%. Entry: Cc1cccc(N(C)C(=O)C2C(O)CCN2c2nc(C)cc(C(F)(F)F)c2C#N)c1 (stereo not given) + CN(C)c1ccc(Nc2c3ccc(NC(=O)CCN4CCCC4)cc3nc3cc(NC(=O)CCN4CCCC4)ccc23)cc1
Response given: NO

Challenge: Is viability, T/C strictly under 20% for the entry COc1ncnc(C2CC2)c1-c1ncc2cnn(Cc3ccc(-c4nc(C(F)(F)F)cn4C(C)C)cc3)c2n1 + Cc1cnc(CNC(=O)c2c(=O)c3ccc(N4CCCN(C)CC4)nc3n3c2sc2ccccc23)cn1 ?
Response given: YES

Challenge: Hello, is viability, T/C of the following compound strictly smaller than 20%? CC1COCCN1c1cc(C2(O)CC3CCC(C2)O3)c2cnn(-c3ccn[nH]3)c2n1 (stereo not given) + Cc1[nH]c2ccc(F)cc2c1-c1nc2c3cccnc3c3ncccc3c2[nH]1
Response given: NO

Challenge: Regarding COc1ccc([C@@H](O)c2cc(-c3ncnc4cc(N5CCOCC5)ccc34)c(F)cc2Cl)nn1 + Cc1cnc(CNC(=O)c2c(=O)c3ccc(N4CCCN(C)CC4)nc3n3c2sc2ccccc23)cn1 , kindly confirm whether its viability, T/C is beneath 20%.
Response given: YES

* * *

Test system: 857933-349-R-J2-PDC complex spheroids, viability
measurementProtocol: Anticancer human tumor 857933-349-R-J2-PDC cell line growth inhibition [GQUAD];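 further: spheroids exposed to compounds for one week before readout; percent viability relative to vehicle DMSO wells taken as 100%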
measurementParameters: second compound 0.1 µM; first compound 0.00999 µM; hits give low values
measuredQuantity: viability, T/C (%)
Give the value, in units of %, as a plain number.

// solved cases for viability, T/C follow
CC[C@@]1(O)C(=O)OCc2c1cc1n(c2=O)Cc2cc3c(CN(C)C)c(O)ccc3nc2-1 + Cc1[nH]c2ccc(F)cc2c1-c1nc2c3cccnc3c3ncccc3c2[nH]1 : 90.2
CC[C@@]1(O)C(=O)OCc2c1cc1n(c2=O)Cc2cc3c(CN(C)C)c(O)ccc3nc2-1 + Cc1cnc(CNC(=O)c2c(=O)c3ccc(N4CCCN(C)CC4)nc3n3c2sc2ccccc23)cn1 : 61.4
Cc1[nH]c2ccccc2c1CCNCc1ccc(/C=C/C(=O)NO)cc1 + Cc1[nH]c2ccc(F)cc2c1-c1nc2c3cccnc3c3ncccc3c2[nH]1 : 102
CCc1c2c(nc3ccc(O)cc13)-c1cc3c(c(=O)n1C2)COC(=O)[C@]3(O)CC + Cc1cnc(CNC(=O)c2c(=O)c3ccc(N4CCCN(C)CC4)nc3n3c2sc2ccccc23)cn1 : 31.9
Cn1ncnc1[C@H]1c2n[nH]c(=O)c3cc(F)cc(c23)N[C@@H]1c1ccc(F)cc1 + Cc1[nH]c2ccc(F)cc2c1-c1nc2c3cccnc3c3ncccc3c2[nH]1 : 98
Cn1ncnc1[C@H]1c2n[nH]c(=O)c3cc(F)cc(c23)N[C@@H]1c1ccc(F)cc1 + CN(C)c1ccc(Nc2c3ccc(NC(=O)CCN4CCCC4)cc3nc3cc(NC(=O)CCN4CCCC4)ccc23)cc1 : 98.6
CC[C@@]1(O)C(=O)OCc2c1cc1n(c2=O)Cc2cc3c(CN(C)C)c(O)ccc3nc2-1 + CN(C)c1ccc(Nc2c3ccc(NC(=O)CCN4CCCC4)cc3nc3cc(NC(=O)CCN4CCCC4)ccc23)cc1 : 95.3
CCc1c2c(nc3ccc(O)cc13)-c1cc3c(c(=O)n1C2)COC(=O)[C@]3(O)CC + CN(C)c1ccc(Nc2c3ccc(NC(=O)CCN4CCCC4)cc3nc3cc(NC(=O)CCN4CCCC4)ccc23)cc1 : 59.9

Challenge: Which viability, T/C value is on record for Cc1[nH]c2ccccc2c1CCNCc1ccc(/C=C/C(=O)NO)cc1 + CN(C)c1ccc(Nc2c3ccc(NC(=O)CCN4CCCC4)cc3nc3cc(NC(=O)CCN4CCCC4)ccc23)cc1 ?
Response given: 99.3

Challenge: I'd like to know its viability, T/C. The compound in question is Cn1ncnc1[C@H]1c2n[nH]c(=O)c3cc(F)cc(c23)N[C@@H]1c1ccc(F)cc1 + Cc1cnc(CNC(=O)c2c(=O)c3ccc(N4CCCN(C)CC4)nc3n3c2sc2ccccc23)cn1
Response given: 62.5

Challenge: Using the record for Cc1[nH]c2ccccc2c1CCNCc1ccc(/C=C/C(=O)NO)cc1 + Cc1cnc(CNC(=O)c2c(=O)c3ccc(N4CCCN(C)CC4)nc3n3c2sc2ccccc23)cn1 , report its viability, T/C.
Response given: 65.6

Challenge: Quick check: viability, T/C of CCc1c2c(nc3ccc(O)cc13)-c1cc3c(c(=O)n1C2)COC(=O)[C@]3(O)CC + Cc1[nH]c2ccc(F)cc2c1-c1nc2c3cccnc3c3ncccc3c2[nH]1 ?
Response given: 45.5

* * *

Recorded viability, T/C by entry
System: 857933-349-R-J2-PDC complex spheroids, viability
measurementProtocol: Anticancer human tumor 857933-349-R-J2-PDC cell line growth inhibition [GQUAD];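 further: spheroids exposed to compounds for one week before readout; percent viability relative to vehicle DMSO wells taken as 100%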
measurementParameters: second compound 10 µM; first compound 0.0316 µM; hits give low values
All answers are understood in %, so give the number only.

Illustrative cases are given below, each with its answer.
C#Cc1c(F)ccc2cc(O)cc(-c3ncc4c(N5CC6CCC(C5)N6)nc(OCC56CCCN5CC(F)C6)nc4c3F)c12 (stereo not given) + Cc1cnc(CNC(=O)c2c(=O)c3ccc(N4CCCN(C)CC4)nc3n3c2sc2ccccc23)cn1 : 0.16
CC1COCCN1c1cc(-c2ccnn2C)c2ccnc(-c3ccn[nH]3)c2n1 (stereo not given) + Cc1[nH]c2ccc(F)cc2c1-c1nc2c3cccnc3c3ncccc3c2[nH]1 : 74.4
Cc1[nH]c2ccccc2c1CCNCc1ccc(/C=C/C(=O)NO)cc1 + Cc1[nH]c2ccc(F)cc2c1-c1nc2c3cccnc3c3ncccc3c2[nH]1 : 95.3
C=CCn1c(=O)c2cnc(Nc3ccc(N4CCN(C)CC4)cc3)nc2n1-c1cccc(C(C)(C)O)n1 + CN(C)c1ccc(Nc2c3ccc(NC(=O)CCN4CCCC4)cc3nc3cc(NC(=O)CCN4CCCC4)ccc23)cc1 : 62.1

Below: the item to evaluate.
Challenge: Look up viability, T/C for this molecule: CCCS(=O)(=O)Nc1ccc(F)c(C(=O)c2c[nH]c3ncc(-c4ccc(Cl)cc4)cc23)c1F + CN(C)c1ccc(Nc2c3ccc(NC(=O)CCN4CCCC4)cc3nc3cc(NC(=O)CCN4CCCC4)ccc23)cc1
Response given: 63.1
